// reported inhibition for each item listed
Test System: Genome polyprotein (West Nile virus) (UniProt P06935)
Sequence (P06935 whole entry): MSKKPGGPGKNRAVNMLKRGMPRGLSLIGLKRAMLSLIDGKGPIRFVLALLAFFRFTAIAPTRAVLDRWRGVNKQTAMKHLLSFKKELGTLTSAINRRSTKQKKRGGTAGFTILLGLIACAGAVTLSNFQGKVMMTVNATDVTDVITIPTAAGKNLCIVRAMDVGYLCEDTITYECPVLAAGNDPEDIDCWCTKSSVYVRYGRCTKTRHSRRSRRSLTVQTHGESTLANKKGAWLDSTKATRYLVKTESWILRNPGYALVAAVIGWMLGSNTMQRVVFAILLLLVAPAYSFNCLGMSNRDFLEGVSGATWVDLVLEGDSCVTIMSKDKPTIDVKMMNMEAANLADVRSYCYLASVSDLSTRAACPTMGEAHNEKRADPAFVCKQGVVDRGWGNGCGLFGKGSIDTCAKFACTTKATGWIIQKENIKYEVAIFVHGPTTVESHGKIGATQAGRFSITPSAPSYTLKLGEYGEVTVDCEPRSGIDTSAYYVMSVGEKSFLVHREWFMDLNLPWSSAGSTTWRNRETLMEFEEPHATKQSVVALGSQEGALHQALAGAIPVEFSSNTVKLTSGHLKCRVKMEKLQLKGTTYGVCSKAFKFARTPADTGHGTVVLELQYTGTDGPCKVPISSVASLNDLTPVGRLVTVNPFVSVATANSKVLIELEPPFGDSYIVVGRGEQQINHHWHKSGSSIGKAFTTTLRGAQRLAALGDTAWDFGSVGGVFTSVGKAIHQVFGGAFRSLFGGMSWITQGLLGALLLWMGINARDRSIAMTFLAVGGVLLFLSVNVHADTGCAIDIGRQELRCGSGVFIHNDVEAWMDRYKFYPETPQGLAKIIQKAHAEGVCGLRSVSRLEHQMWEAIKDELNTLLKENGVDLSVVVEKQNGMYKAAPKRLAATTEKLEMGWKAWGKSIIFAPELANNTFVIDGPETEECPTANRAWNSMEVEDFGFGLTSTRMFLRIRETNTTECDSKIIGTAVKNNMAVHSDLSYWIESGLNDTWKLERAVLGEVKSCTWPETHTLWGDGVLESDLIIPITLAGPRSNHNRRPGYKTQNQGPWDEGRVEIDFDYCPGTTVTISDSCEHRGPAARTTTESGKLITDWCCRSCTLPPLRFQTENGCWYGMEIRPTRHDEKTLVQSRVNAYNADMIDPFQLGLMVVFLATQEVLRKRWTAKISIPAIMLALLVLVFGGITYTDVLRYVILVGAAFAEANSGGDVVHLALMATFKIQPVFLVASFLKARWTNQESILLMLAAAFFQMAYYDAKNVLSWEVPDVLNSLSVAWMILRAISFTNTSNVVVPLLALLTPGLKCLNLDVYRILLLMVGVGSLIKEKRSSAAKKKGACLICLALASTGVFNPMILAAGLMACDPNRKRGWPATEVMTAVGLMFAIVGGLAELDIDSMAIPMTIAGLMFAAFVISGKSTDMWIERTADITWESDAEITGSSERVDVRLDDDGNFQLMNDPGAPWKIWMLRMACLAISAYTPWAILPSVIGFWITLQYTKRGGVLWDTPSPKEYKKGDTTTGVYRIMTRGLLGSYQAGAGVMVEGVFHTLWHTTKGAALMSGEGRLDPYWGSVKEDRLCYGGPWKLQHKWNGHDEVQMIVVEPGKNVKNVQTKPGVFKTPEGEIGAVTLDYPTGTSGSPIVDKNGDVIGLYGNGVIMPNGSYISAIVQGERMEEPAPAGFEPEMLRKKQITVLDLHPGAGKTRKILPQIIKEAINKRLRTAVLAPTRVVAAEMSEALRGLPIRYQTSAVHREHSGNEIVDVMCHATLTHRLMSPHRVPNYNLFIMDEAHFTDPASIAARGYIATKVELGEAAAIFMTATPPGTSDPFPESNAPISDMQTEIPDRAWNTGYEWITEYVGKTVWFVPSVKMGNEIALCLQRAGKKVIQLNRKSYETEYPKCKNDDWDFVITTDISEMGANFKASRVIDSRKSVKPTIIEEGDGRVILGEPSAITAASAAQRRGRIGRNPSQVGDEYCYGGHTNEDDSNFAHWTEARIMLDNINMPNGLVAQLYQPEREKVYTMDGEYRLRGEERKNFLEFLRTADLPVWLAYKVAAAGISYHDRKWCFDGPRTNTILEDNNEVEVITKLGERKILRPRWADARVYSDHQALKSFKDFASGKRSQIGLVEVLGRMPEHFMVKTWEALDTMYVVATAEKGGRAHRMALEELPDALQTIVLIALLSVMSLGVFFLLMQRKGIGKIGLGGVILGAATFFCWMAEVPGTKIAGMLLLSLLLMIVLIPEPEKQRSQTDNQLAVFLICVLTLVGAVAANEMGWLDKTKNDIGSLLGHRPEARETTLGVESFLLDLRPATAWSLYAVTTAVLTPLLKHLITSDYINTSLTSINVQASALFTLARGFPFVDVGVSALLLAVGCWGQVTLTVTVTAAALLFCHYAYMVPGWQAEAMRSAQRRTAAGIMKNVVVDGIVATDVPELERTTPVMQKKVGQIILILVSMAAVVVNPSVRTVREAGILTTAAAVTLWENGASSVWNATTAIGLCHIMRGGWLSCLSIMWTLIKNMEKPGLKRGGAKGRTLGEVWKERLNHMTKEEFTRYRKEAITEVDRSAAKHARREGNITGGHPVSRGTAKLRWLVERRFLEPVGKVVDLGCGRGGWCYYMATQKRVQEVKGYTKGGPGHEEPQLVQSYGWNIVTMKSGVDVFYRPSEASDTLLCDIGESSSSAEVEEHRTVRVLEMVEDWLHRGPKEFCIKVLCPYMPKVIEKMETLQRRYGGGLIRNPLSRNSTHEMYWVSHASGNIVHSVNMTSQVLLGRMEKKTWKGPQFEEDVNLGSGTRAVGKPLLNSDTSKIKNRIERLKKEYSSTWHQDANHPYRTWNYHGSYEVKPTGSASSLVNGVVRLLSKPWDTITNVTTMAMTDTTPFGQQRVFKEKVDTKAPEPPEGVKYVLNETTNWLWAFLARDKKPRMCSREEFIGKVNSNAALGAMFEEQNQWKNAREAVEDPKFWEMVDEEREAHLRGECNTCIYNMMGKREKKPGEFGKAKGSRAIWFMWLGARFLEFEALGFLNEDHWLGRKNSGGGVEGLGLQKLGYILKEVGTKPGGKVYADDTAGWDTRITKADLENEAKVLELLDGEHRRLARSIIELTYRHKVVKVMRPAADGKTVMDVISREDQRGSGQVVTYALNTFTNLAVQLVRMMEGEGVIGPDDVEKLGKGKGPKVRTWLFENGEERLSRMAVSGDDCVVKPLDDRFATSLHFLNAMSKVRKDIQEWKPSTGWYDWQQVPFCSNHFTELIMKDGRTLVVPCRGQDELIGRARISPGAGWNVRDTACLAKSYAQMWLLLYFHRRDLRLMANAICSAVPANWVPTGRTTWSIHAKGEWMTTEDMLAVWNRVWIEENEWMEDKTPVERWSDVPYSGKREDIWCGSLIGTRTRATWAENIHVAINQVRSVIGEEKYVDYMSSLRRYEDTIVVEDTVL
Test Details: Inhibition of West Nile virus […] NS2B-NS3 protease at 50 uM by homogeneous fluorimetric assay
Square brackets hold non-standard residues; d marks the D form. Peptide text beside a SMILES is read from it. * marks the point of attachment. Nva = CCC[C@H](N)C(=O)O; Aib = CC(C)(N)C(=O)O; Bz = O=C(c1ccccc1)*
Give the value in % but do not write % after it.

Example cases with answers are listed next.
CCCC[C@@H](NC(=O)[C@H](CCCCN)NC(=O)[C@H](CCCNC(=N)N)NC(=O)c1ccccc1)C(N)=O: 16.1
CCCC[C@H](NC(=O)[C@H](CCCCN)NC(=O)[C@H](CCCNC(=N)N)NC(=O)c1ccc(/C=C2\SC(=O)N(C3CCCC3)C2=O)cc1)C(N)=O: 51.8
CC(C)(NC(=O)[C@H](CCCCN)NC(=O)[C@H](CCCNC(=N)N)NC(=O)c1ccccc1)C(N)=O (Bz-Arg-Lys-[Aib]-NH2): 13.7

Turning now to a further molecule:
Entry under review: CCC[C@H](NC(=O)[C@H](CCCCN)NC(=O)[C@H](CCCNC(=N)N)NC(=O)c1ccccc1)C(N)=O (Bz-Arg-Lys-[Nva]-NH2) . Reported inhibition?
8.5
